Tested on: CAKI-1 renal
Experiment: NCI-60 one-dose screen, 48 h
Details: 10 µM unless noted
This is part of a sample that, as a whole, favours compounds with a hit. Of some 83,000 tested, about 20% had one in any assay. Calls of active or inactive are those of the source. Rule for the calls: active = growth percent below 10; inactive = the rest.
Labels: true (1) (active), false (0) (inactive)

compound	assay_target	label_value
Brc1ccc(-c2cc(-c3ccc4c(c3)OC=CO4)n[nH]2)s1	CAKI-1 renal	false (0)
CCN(CC)CCOc1ccc(C(=C(C)c2ccc(OC)cc2)c2ccc(OCCN(CC)CC)cc2)cc1	CAKI-1 renal	true (1)
CCC1=Cc2c(OC)cccc2OC12C=Cc1c(OC)cccc1O2 (centres undefined)	CAKI-1 renal	false (0)
CN1CCN(c2ccc(Nc3nc(NCCNC(=O)c4ccc(F)cc4)c4sccc4n3)cc2)CC1	CAKI-1 renal	false (0)
O=C(CSc1nc2ccccc2c(=O)n1-c1ccccc1)Nc1ccc(S(=O)(=O)Nc2nccs2)cc1	CAKI-1 renal	false (0)
COC(=O)c1cccc(NC2=C(Cl)C(=O)C(C)=C(C)C2=O)c1	CAKI-1 renal	false (0)
O=C1[C@@H]2Cc3c([nH]c4ccccc34)[C@H](c3ccc(Cl)cc3)N2C(=O)CN1C1CCN(Cc2ccccc2)CC1	CAKI-1 renal	false (0)
CN(C)S(=O)(=O)c1ccc(-c2nc(C(Cl)Cl)nc3cc(-c4ccccc4)nn23)cc1	CAKI-1 renal	false (0)
COc1cc2cc(Oc3ccc(NC(=O)c4cc(C(F)(F)F)cc(C(F)(F)F)c4)cc3)c(C)nc2cc1OCCN1CCOCC1	CAKI-1 renal	false (0)
COC(=O)c1ccc(NC2=C(Cl)C(=O)C(C)=C(C)C2=O)cc1	CAKI-1 renal	false (0)
CCn1c2ccc(/C=N/N(C)S(=O)(=O)CCN(C)C)cc2c2cc(/C=N/N(C)S(=O)(=O)CCN(C)C)ccc21	CAKI-1 renal	false (0)
Cc1ccc(/C=N/Nc2nc(Nc3ccccc3)nc(Nc3ccc(S(N)(=O)=O)cc3)n2)cc1	CAKI-1 renal	false (0)
O=C(Nc1ccc(N2CCOCC2)cc1)Nc1ccc2c(ccn2C(=O)c2cccc(F)c2)c1	CAKI-1 renal	false (0)
NS(=O)(=O)c1ccc(Nc2nc(N/N=C/c3ccc4c(c3)OCO4)nc(Nc3ccccc3)n2)cc1	CAKI-1 renal	false (0)
C#CCn1cc(/C=N/Nc2nc(-c3ccc(Br)cc3)cs2)c2ccccc21	CAKI-1 renal	false (0)
C#Cc1nc(/C=C\CCCCCCC(=O)NO)cs1	CAKI-1 renal	true (1)
COc1ccc(C2CC(c3cccc(OCCCCOc4cccc(C5=NOC(c6ccc(OC)cc6)C5)c4)c3)=NO2)cc1 (centres undefined)	CAKI-1 renal	false (0)
NC1[C@H]2CN(c3cnc(C(=O)Nc4cc(F)cc5cccnc45)cn3)C[C@@H]12 (some centres undefined)	CAKI-1 renal	false (0)
COc1ccc(/C=N/NC(=O)c2c(N)nn(C)c2Nc2ccccc2)cc1Oc1ccccc1	CAKI-1 renal	false (0)

###

Parameter growth: see the listing below.
Test system: SNB-75 CNS
Experiment: NCI-60 one-dose screen, 48 h (100 = growth as untreated, 0 = no growth, -100 = all killed)
Details: 10 µM unless noted
Compounds without any hit were thinned out: in the full panel of roughly 83,000, 20% have a hit.
measured_parameter: growth (%)

compound	test_value
CC(C)C(/C=C/c1[nH]ncc1-c1cc(Cl)ccc1O)N1CCOCC1 (stereo unspecified)	65.3
CCc1cc(OC(=O)N2CCN(CCC(C)(COC(C)(C)C)COC(C)(C)C)CC2)ccc1Nc1cc(-c2ccc(-n3cccn3)cc2)[nH]n1	48.7
CCS(=O)(=O)Nc1ccc(C(=O)CC2(O)C(=O)Nc3ccccc32)cc1 (stereo unspecified)	69.2
COc1cc(/C=C2/C(=O)Nc3ccc(Cl)cc32)ccc1OCc1ccc(Cl)cc1	77.7
Cc1ccc(NC(=O)Nc2nc3ccc([N+](=O)[O-])cc3s2)cc1	1.44
CC(=O)/C(N=Nc1ccc2oc(=O)ccc2c1)=C(\C)O	67.8
Cc1ccc(Nc2nc(SC(C)C)nc(-c3ccccc3)c2C#N)cc1	91.1
Brc1ccc(-c2cc(-c3ccc4c(c3)OCCO4)n[nH]2)s1	7.95
NCCNC(=O)c1cccc(COc2ccccc2NC(=O)c2cc(Cl)c(Cl)[nH]2)c1	72.5
C#C[C@]1(O)CC[C@H]2[C@@H]3CC=C4c5sc(Nc6cc(C)cc(C)c6)nc5CC[C@]4(C)[C@H]3CC[C@@]21C	10.2
CC(=C(c1ccc(OCCN2CCCC2)cc1)c1ccc(OCCN2CCCC2)cc1)c1ccc(Cl)cc1	45.8
COC(=O)c1cccc(NC2=C(Cl)C(=O)C(C)=C(C)C2=O)c1	60.7
Oc1ccc(-c2nc3ccc(/C(=N\N=C\c4ccc(Cl)cc4)c4ccccc4)cc3[nH]2)cc1	93.4
COc1cc2c3c(cc4c5c(ccc4c3c1OC)OCO5)N(CCN(C)C)C2=O	-75.5
CN1CCN(Cc2ccc(NC(=O)c3cncc(C#Cc4cnc5ccc(OC6CCOCC6)nn45)c3)cc2C(F)(F)F)CC1	-84.9
O=C(COc1ccc(/C=C2\C(=O)Nc3cc(Cl)ccc32)cc1)Nc1ccc(Cl)cc1	78.9
COc1ccc(C(=NNS(=O)(=O)c2ccc(C)cc2)c2ccccc2)cc1OC	90.4
Cc1ncn(-c2ccc(/C=N/Nc3ccnc4cc(Cl)ccc34)cc2)c1C	-24.2
COc1cc2oc(-c3cccc(NC(=O)[C@@H](N)C(C)C)c3)cc(=O)c2c(OC)c1OC	124
CC(C)=CCC[C@](C)(O)[C@H]1CC[C@]2(C)[C@@H]1CC[C@@H]1[C@@]3(C)CC[C@H](N)C(C)(C)[C@@H]3CC[C@]12C	87.2
O=C(Nc1ccc(N2CCOCC2)cc1)Nc1ccc2c(ccn2C(=O)c2cccc(F)c2)c1	12.3
